B1: Azoarcus group I ribozyme (parent)
chain: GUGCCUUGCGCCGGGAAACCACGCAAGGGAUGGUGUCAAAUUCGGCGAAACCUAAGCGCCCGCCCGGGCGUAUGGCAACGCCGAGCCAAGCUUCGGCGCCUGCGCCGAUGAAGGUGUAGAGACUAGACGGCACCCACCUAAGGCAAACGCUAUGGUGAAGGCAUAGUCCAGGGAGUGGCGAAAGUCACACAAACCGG

- Variants of: B1
- PROTOCOL_DESCRIPTION: reverse-splicing fitness (ratio to wild type); higher = more active; in vitro selection; Mg2+ level not given
TEST_READOUT: reverse-splicing fitness
// response body must contain only the number

// worked examples, reverse-splicing fitness included
> print(dat)
                     variant.notation              test.readout  measured
1       A111G A120G C150A C169G U176G  reverse-splicing fitness   0.00566
2             A111C A145U C169U U176G  reverse-splicing fitness   0.00798
3  C82U A111U A145C C150A C169A U176C  reverse-splicing fitness   0.00618
4        C82U A111U A120G C150G C169A  reverse-splicing fitness   0.00782
5        C82U A111G A120G A145U C150G  reverse-splicing fitness   0.00645
6       A111C A145C C150U C169U U176G  reverse-splicing fitness   0.00818

Consider the variant C82A A120U A145G C169G U176G and give its measured reverse-splicing fitness.
0.00125

Returns the measured reverse-splicing fitness for the input variant. Input: A120G A145G C150G C169A U176C
0.0319

// query reverse-splicing fitness value for entry C82U A111C A120U C150G
0.00681
